target: Sodium channel protein type 9 subunit alpha (Homo sapiens); experiment: Control sodium currents were measured in 0.5% DMSO.
Sequence (Q15858 whole entry): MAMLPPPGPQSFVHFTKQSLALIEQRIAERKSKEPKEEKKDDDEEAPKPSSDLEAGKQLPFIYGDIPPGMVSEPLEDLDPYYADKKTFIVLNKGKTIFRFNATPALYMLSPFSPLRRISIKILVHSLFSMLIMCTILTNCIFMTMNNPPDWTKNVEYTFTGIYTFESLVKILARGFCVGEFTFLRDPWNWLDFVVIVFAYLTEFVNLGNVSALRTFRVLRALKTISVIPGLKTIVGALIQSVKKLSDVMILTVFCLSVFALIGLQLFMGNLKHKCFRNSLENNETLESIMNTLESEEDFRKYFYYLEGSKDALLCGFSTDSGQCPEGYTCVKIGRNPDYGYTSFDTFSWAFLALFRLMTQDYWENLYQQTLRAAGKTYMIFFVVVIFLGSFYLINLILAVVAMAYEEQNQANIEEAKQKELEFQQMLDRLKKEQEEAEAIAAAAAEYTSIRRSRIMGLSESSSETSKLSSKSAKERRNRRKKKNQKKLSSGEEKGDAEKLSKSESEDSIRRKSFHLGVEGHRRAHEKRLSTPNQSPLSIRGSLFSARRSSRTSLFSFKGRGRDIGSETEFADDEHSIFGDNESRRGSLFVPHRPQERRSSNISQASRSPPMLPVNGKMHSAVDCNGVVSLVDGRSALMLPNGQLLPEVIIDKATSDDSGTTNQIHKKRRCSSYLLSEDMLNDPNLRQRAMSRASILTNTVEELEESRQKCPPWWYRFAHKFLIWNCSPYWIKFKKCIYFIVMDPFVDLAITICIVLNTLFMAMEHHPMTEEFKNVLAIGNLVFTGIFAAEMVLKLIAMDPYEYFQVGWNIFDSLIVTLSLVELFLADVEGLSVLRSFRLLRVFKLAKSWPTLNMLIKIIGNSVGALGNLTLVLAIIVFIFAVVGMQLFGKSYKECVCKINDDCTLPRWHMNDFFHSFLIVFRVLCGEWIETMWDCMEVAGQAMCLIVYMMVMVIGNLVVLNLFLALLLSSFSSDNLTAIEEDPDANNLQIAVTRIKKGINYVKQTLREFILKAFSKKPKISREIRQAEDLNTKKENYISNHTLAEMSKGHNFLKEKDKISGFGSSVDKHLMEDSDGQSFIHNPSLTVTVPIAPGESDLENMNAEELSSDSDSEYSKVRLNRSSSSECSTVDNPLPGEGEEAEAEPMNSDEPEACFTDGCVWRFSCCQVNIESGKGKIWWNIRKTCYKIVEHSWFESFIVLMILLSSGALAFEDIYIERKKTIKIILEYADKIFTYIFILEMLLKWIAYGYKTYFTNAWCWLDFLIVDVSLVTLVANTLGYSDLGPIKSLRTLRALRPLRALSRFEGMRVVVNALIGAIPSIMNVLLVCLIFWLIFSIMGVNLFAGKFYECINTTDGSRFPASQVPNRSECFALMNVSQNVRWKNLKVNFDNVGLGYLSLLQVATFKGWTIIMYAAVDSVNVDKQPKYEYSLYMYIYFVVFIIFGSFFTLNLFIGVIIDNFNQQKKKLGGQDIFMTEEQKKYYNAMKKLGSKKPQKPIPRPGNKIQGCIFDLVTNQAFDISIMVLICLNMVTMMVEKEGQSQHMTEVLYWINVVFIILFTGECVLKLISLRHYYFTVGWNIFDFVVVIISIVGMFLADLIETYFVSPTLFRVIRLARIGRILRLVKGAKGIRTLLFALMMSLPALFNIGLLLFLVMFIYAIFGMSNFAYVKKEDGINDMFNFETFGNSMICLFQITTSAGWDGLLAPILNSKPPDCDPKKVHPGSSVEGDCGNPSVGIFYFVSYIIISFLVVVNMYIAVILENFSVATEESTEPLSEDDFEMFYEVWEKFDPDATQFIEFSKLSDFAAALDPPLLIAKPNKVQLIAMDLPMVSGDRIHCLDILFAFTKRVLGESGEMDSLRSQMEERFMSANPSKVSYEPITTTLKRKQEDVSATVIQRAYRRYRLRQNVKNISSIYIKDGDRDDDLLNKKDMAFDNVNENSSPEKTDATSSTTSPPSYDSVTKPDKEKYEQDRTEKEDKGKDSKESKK
PROPERTY_NAME: IC50 (nM)
Give the quantity in nM, number only.

Data request: Return IC50 measured with Sodium channel protein type 9 subunit alpha (Homo sapiens) given this compound: O=C(NS(=O)(=O)N1CCC1)c1cc(C2CC2)c(OCC2CC3CCC(C2)N3C(c2ccccc2)c2ccccc2)cc1F (stereo unspecified)
Data returned: 5.4

Data origin: ChEMBL document CHEMBL5725519
